Tested on: UACC-257 melanoma
Measurement Notes: NCI tumour cell line growth inhibition, 48 h
Kindly state TGI for each of the entries shown.
One number for each entry, in µM.

Provide the reported TGI of each entry below, same order.
1. COc1ccc(CNC2=C(NC(C)=O)C(=O)c3ccccc3C2=O)cc1
2. O=c1c2cc([N+](=O)[O-])ccc2n(Cc2ccccc2)n1Cc1ccccc1

## Output
1: 21.7; 2: 19.8

====

Kindly state TGI for each of the entries shown.
Tested on: MCF7 breast
Measurement Notes: NCI tumour cell line growth inhibition, 48 h

Example compounds with recorded TGI:
CC1=NN(C(=O)CC(=O)Nc2ccccc2Cl)C(=O)C1N=Nc1ccc(C(=O)O)cc1 (configuration not stated)    > 100 µM
c1cc(OCCN2CCCCCC2)ccc1CNc1ccc2nc(CCC3CCCCC3)[nH]c2c1    4.12 µM
Cn1ncc2c(/N=C/c3cccs3)[nH]c(=S)nc21    > 80.3 µM
COC(=O)C[C@@H]1C(C)(C)[C@@H]2O[C@@]34C[C@@H]2C(=O)[C@]1(C)[C@H]3CC[C@@]1(C)[C@H](c2ccoc2)OC(=O)C[C@]14O    > 100 µM
Clc1cc(Cl)c(Cl)c(-c2nc(-c3cccnc3)cs2)c1    > 100 µM
COc1ccc(CNc2nc3cc(C(F)(F)F)ccc3nc2C(=O)O)cc1OC    95 µM
CC#CS(=O)(=O)c1ccccc1    40.9 µM
Nc1cc2c3c(cccc3c1)C(=O)N(c1ccc(OCCN3CCCCC3)cc1)C2=O    36.3 µM
CSC(=NCCCCN=C(NS(=O)(=O)c1ccc(Cl)cc1)SC)NS(=O)(=O)c1ccc(Cl)cc1    > 100 µM
CCOC(=O)n1[nH]c(=O)n(-c2ccccc2)c1=O    > 100 µM

Provide the reported TGI of each entry below, same order.
1. Nc1nc(Nc2ccccc2)sc1C(=O)c1ccc(Cl)cc1
2. Cc1cc(O)c(C(C)C)cc1CN1CCCCC1
3. COC(=O)C1C(O)CCC2CN3CCc4c([nH]c5cccc(OC)c45)C3CC21 (configuration not stated)
4. Cc1ccc(S(=O)(=O)OC2=C/C(=N\c3onc(C)c3C)c3ccccc3C2=O)cc1

## Output
> 100 µM
> 100 µM
> 100 µM
33.5 µM

Provide the reported TGI of each entry below, same order.
1. O=[N+]([O-])c1ccc2c(c1)c(N=NC(=S)NC1CCCCC1)c(O)n2CN1CCOCC1
2. COc1ccc(/C(C)=C(\c2ccc(Cl)cc2)c2ccc(OCCN3CCCC3)cc2)cc1F

## Output
17.4 µM
6.15 µM

====

Tested on: NCI-H460 lung
Measurement Notes: NCI tumour cell line growth inhibition, 48 h
Parameter Measured: TGI (µM)
Answers are plain numbers, in µM.

Example molecules with recorded TGI:
Oc1ccc(CNCc2ccccc2)c2cccnc12    0.184
CCOC(=O)c1c(C)nc2ccc(Cl)cc2c1-c1ccccc1    45.2

Provide the reported TGI of each entry below, same order.
1. O=C1/C(=C\C(Cl)=C/c2ccc([N+](=O)[O-])cc2)SC(=S)N1CCc1ccc(O)cc1
2. CCCCCC(O)[C@H]1C(=O)C[C@@H](O[Si](C)(C)C(C)(C)C)[C@@H]1/C=C/CCOCc1ccccc1 (some centres not stated)
3. CCCCCCCC/C=C/CCCCCCCC1=NC(C)(C)CN1C(C)C

## Output
1. 4.05
2. 30.5
3. 3.07
